Assay: solvent given as SMILES
Conditions: in ClCCl
Please use fulfilled whenever emission maximum is not below 500 nm, and not fulfilled whenever it is.

These solved cases illustrate the format of a correct answer.
INSERT INTO results (compound, class_label) VALUES
  ('C[Si]1(C)c2ccccc2-c2cc3c(cc21)-c1ccccc1[Si]3(C)C', 'not fulfilled'),
  ('Cc1ccccc1-c1c2ccc(=[N+]3CCCCC3)cc-2oc2cc(N3CCCCC3)ccc12', 'fulfilled'),
  ('Cc1cc2ccccc2c2c1c1ccccc1n2-c1ccc(C#N)cc1', 'not fulfilled'),
  ('CCCOc1ccc(/C=C/C=C/C=C/c2ccc([N+](=O)[O-])cc2)cc1', 'fulfilled');

Then this compound:
In: Item `Fc1cccc(F)c1[B-]1(c2c(F)cccc2F)Oc2c(ccc3c4c(ccc23)C=[N+](c2ccccc2)[B-](c2c(F)cccc2F)(c2c(F)cccc2F)O4)C=[N+]1c1ccccc1` with emission maximum of 500 nm or above?
Out: fulfilled

---

Assay: solvent given as SMILES
Details: in O
Below is a list of entries, each paired with its recorded emission maximum value.
The reply should contain only the number, in nm.

Check out these entries, answers already filled in.
INSERT INTO results (molecule, value_kind, val) VALUES
  ('CCOC(=O)C1CC(c2c(C#N)c(C)nn2-c2ccccc2)=CN1c1ccc(Br)cc1 (stereo not given)', 'emission maximum', 495),
  ('CC(=O)OC[C@@H]1O[C@H](n2cnc3c2N=CN2Cc4c[n+](C)c(C)nc4N=C32)[C@@H](O)[C@H]1O', 'emission maximum', 409),
  ('CC[n+]1c(-c2ccccc2)c2cc(N)ccc2c2ccc(NC(N)=[NH2+])cc21', 'emission maximum', 590),
  ('O=c1oc2ccccc2c(O)c1C(CC(O)c1ccc(-c2ccc(Br)cc2)cc1)c1ccccc1 (stereo not given)', 'emission maximum', 397),
  ('Cc1cn(CCCn2cc(C)c(=O)[nH]c2=O)c(=O)nc1-n1cncn1', 'emission maximum', 382),
  ('CC[N+]1(CC)CN2C(=N1)C(C(=O)O)=Cc1c2ccc2ccccc12', 'emission maximum', 487),
  ('CN(C)c1ccc(/C=C/c2cc[n+](CCCCC[n+]3ccc(/C=C/c4ccc(N(C)C)cc4)cc3)cc2)cc1', 'emission maximum', 597),
  ('CC[n+]1c(-c2ccccc2)c2cc(-n3cccc3)ccc2c2ccc(-n3cccc3)cc21', 'emission maximum', 502);

Pending molecule:
In: // lookup emission maximum for `CC1=N/C(=C\c2ccncc2)C(=O)N1C`
Out: 464

---

Assay: solvent given as SMILES
Conditions: in CO
# emission maximum >= 500 nm gives 1, anything below gives -1

Worked set:
INSERT INTO assay_data (compound, class_label) VALUES
  ('CN1c2ccccc2CCc2ccccc21', -1),
  ('Cc1cc(O)c(C(C)C)cc1/N=C/c1ccc(C(F)(F)F)cc1', -1),
  ('COc1cc(N(c2ccccc2)c2ccc(C=C(C#N)C#N)c(OC)c2)ccc1C=C(C#N)C#N', 1),
  ('N#Cc1ccc2c(c1)CCc1nc(-c3ccc([N+](=O)[O-])cc3)c3c(c1-2)CCc1cc(C#N)ccc1-3', -1),
  ('N#Cc1cccc2c(N)c(-c3nn([C@H]4C[C@H](O)[C@@H](CO)O4)c4ncnc(N)c34)ccc12', 1);

In: Given the entry `CCN(CC)c1ccc2cc(-c3csc(NC(C)=O)c3C#N)c(=O)oc2c1` , answer whether its emission maximum meets or surpasses 500 nm.
Out: -1

In: Test whether the compound `O=S(=O)(c1ccccc1)c1ccc(-c2ccc3c4ccc(-c5ccc(S(=O)(=O)c6ccccc6)cc5)cc4n(-c4ccccc4)c3c2)cc1` records emission maximum of 500 nm or higher.
Out: -1

In: Say whether `Cc1cc(C)c(B(c2cc(-c3ccc(C(F)(F)F)cc3)sc2-c2sc(-c3ccc(C(F)(F)F)cc3)cc2P(=O)(c2ccccc2)c2ccccc2)c2c(C)cc(C)cc2C)c(C)c1` shows emission maximum of 500 nm or more.
Out: 1

In: Does the reported emission maximum for `O=Cc1cc(C=O)c2ccc3c(N4CCCCC4)cc(N4CCCCC4)c4ccc1c2c43` fall at or above the 500 nm mark?
Out: 1

In: Entry O=C(O)C1=CC(=C/C=[N+]2/c3cc(O)c(C[C@@H]4O[C@H](CO)[C@@H](O)C(O)[C@H]4O)cc3C[C@H]2C(=O)O)C=C(C(=O)O)N1 (some centres undefined) : is its emission maximum no less than 500 nm?
Out: 1

In: Has `COc1ccc(-c2nc(-c3cccc(C#N)c3)[nH]c2-c2ccc(OC)cc2)cc1` a recorded emission maximum greater than or equal to 500 nm?
Out: -1

In: Decide: emission maximum of COC(=O)C(NC(=O)OC(C)(C)C)c1ccc2oc(-c3ccc(F)cc3)nc2c1 (centres undefined) >= 500 nm?
Out: -1

In: Does the compound `COC(=O)c1ccc2ccc3cccc4ccc1c2c34` have recorded emission maximum that is 500 nm or more?
Out: -1

In: Please check the record `CC[n+]1c(C=C2C(=O)C(C=C3N(C)c4ccccc4C3(C)C)=C2[O-])sc2ccccc21` and state if its emission maximum is at or above 500 nm.
Out: 1

Where do the numbers come from? From the Deep4Chem optical property database.
